- Test system: A2780 AD, variant of A2780 showing resistance to adriomycin
- measurement-description: Cell growth inhibition, A2780 AD (adriomycin resistant variant)
- Type: cell-based
- condition-context: multidrug resistant, over expresses p glycoprotein, 24 hours exposure
We begin with a simple list: items and their reported pIC50.
The value called pIC50 is obtained by taking minus log10 of the concentration in mol/L.

Consider the worked cases shown below.
> print(dat)
                                   compound  measurement.type  reported.result
1  C1=CCC2=C(C1)Cc1ccccc1C2.[Cl][Ru][Cl] [Example 2, [(η^6-C14H14)RuCl2(DMSO)]]             pIC50             5.40
2  C1=CCC2=C(C1)Cc1ccccc1C2.F[P-](F)(F)(F)(F)F.NCCN.[Cl][Ru+] [Example 1, [(η^6-C14H14)RuCl(en)]^+PF6]             pIC50             3.48
3  F[P-](F)(F)(F)(F)F.NCCN.[Cl][Ru+].c1ccc2c(c1)Cc1ccccc1C2 [Example 4, [η^6-C14H12)RuCl(en)]^+PF6−]             pIC50             3.98
4  CC#N.CC#N.F[P-](F)(F)(F)(F)F.[Cl][Ru+].c1ccc2c(c1)Cc1ccccc1C2 [Example 6, [(η^6-C14H12)RuCl(CH3CN)2]^+PF6^−]             pIC50             6.05

Returns the measured pIC50 for the input compound. Input: C1=CCC2=C(C1)Cc1ccccc1C2.CC#N.CC#N.F[P-](F)(F)(F)(F)F.[Cl][Ru+] [Example 3, [(η^6-C14H14)RuCl(CH3CN)2]^+PF6^−] 5.70

Would you mind doing [Cl][Ru][Cl].c1ccc2c(c1)Cc1ccccc1C2 [Example 5, [(η^6-C14H12)RuCl2(DMSO)]] as well? 5.30
